soluble fraction (log2) reference
Assay: soluble fraction after stress (log2 fold change); higher = more stays soluble; pooled small domains, quantitative proteomics;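 note: 20 min heating vs room temperature control held 20 min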
Conditions: stress: 75 degC
Provide a numeric answer; units are not to be included.

Some solved cases for reference:
Requested read-out: soluble fraction (log2). Entry: HMGEIVVPDLIGKSLTEATRILSDSTLTVGKVNYQISSTLLPNTVLDQYPAPGNKLNSGNTVDLFITKE
0.068

Then what about the sequence HMRDYDFGNLLYKLRIESGYTQKDIADMLGVTDKAVSKWENGIAKPTTNNIKLLSTIYNVSVEELLNG ?
-1.19

Then what about the sequence HMQITNEGQIKLVISEVLNENQEQKKQYLSGKEQVLGYLIGKVMQKTKGKANPKLVNDLMIKELS ?
-0.135

Pending sequence:
Requested read-out: soluble fraction (log2). Entry: HMKQTMIVVMEKDAPQSQIDDMVKRIEGLGLKAHTIVGTQRTVVAAIGEKREDTRESLAGSPGVAEVVPIL
0.239

Hello, the source for this data is the domain aggregation screens of Martell et al. (2025), in case you need it.
